This section presents compounds with their documented pIC50 values.
- test-system: B-Raf(V599E) kinase (Homo sapiens, UniProt P15056, V600E)
- Sequence (P15056 with tags, fused parts or gaps V600E): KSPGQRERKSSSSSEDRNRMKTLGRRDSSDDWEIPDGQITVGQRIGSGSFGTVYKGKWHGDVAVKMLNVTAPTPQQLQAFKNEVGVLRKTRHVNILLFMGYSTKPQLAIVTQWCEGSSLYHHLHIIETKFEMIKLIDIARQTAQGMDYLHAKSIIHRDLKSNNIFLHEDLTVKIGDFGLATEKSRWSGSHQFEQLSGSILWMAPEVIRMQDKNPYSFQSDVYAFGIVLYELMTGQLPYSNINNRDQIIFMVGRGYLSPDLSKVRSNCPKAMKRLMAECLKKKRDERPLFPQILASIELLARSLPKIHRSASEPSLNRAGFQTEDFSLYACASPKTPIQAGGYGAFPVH
- protocol-details: B-Raf(V599E) kinase assay B1 (construct 1, MEK1 substrate, coupled spectrophotometric)
- Assay type: biochemical
pIC50: −log10 of the molar value.
observable: pIC50

- CC(C)(C)c1cc(NC(=O)Nc2ccc(Cl)cc2)n(-c2ccc3c(c2)CNCC3)n1 [Example 124]: 6.76
- CC(C)(C)c1cc(NC(=O)Nc2cc(F)c(F)cc2F)n(-c2ccc3ncccc3c2)n1 [Example 53]: 8.35
- CC(C)(C)c1cc(NC(=O)Nc2cccc(Cl)c2Cl)n(-c2ccc3c(c2)CN(S(C)(=O)=O)CC3)n1 [Example 127]: 8.47
- CC(C)(C)c1cc(NC(=O)Nc2cccc(Cl)c2Cl)n(-c2ccc(CC(=O)N3CCC(C(=O)O)CC3)cc2)n1 [Example 498]: 7.28
- CC(C)(C)c1cc(NC(=O)Nc2cc(F)c(F)c(F)c2)n(-c2ccc3c(c2)CCC(=O)N3)n1 [Example 324]: 7.77
- COc1ccc(-n2nc(C(C)(C)C)cc2NC(=O)Nc2cccc(Cl)c2Cl)cc1 [Example 18]: 6.34
- CC(C)(C)c1cc(NC(=O)Nc2ccccc2)n(-c2ccc3c(c2)CCC(=O)N3)n1 [Example 319]: 7.49
- CC(C)(C)c1cc(NC(=O)Nc2cccc(Cl)c2Cl)n(-c2cccc(C(C)(C)O)c2)n1 [Example 2]: 7.72

====

- test-system: KDR kinase (Homo sapiens, UniProt P35968, DEL940-989/E990V)
- Sequence (P35968 with tags, fused parts or gaps DEL940-989/E990V): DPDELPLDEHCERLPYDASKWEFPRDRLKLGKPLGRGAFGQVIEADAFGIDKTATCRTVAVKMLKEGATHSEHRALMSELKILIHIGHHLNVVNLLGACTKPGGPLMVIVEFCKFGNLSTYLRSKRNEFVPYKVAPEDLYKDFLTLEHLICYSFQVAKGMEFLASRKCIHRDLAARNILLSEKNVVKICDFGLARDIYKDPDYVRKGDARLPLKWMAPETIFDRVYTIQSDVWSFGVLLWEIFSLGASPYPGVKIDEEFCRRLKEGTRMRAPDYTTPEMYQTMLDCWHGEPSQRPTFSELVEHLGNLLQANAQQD
- protocol-details: KDR kinase assay K1 (pyruvate kinase/lactate dehydrogenase coupled, spectrophotometric)
- Assay type: biochemical
- experimental-setup: Method K1; read-out: KDR Data (IC50)
pIC50: −log10 of the molar value.
observable: pIC50

- CC(C)(C)c1cc(NC(=O)Nc2cccc(Cl)c2Cl)n(-c2cc(CN)c3ccccc3c2)n1 [Example 69]: 6.40
- CC(C)(C)c1cc(NC(=O)Nc2cccc(Cl)c2Cl)n(-c2cccc(C(N)=O)c2)n1 [Example 13]: 6.44
- CC(C(N)=O)c1ccc(-n2nc(C(C)(C)C)cc2NC(=O)Nc2cccc(Cl)c2Cl)cc1 (stereo not shown) [Example 203]: 6.80
- CC(C)(C)c1cc(NC(=O)Nc2cccc(Oc3ccccc3)c2)n(-c2ccc3c(c2)CCNC3)n1 [Example 140]: 5.64
- CC(C)(C)c1cc(NC(=O)Nc2cccc(Cl)c2Cl)n(-c2ccc(CC(=O)O)cc2)n1 [Example 383]: 6.55
- CC(C)(C)c1cc(NC(=O)Nc2cccc(Cl)c2Cl)n(-c2ccc3c(c2)CCN(S(C)(=O)=O)C3)n1 [Example 154]: 7.04
- CC(C)(C)c1cc(NC(=O)Nc2cccc(Cl)c2Cl)n(-c2ccc3c(c2)CN[C@H](C(=O)O)C3)n1 [Example 177]: 6.64

====

- test-system: KDR kinase (Homo sapiens, UniProt P35968, DEL940-989/E990V)
- protocol-details: KDR kinase assay K1 (pyruvate kinase/lactate dehydrogenase coupled, spectrophotometric)
- Type: biochemical
- experimental-setup: Method K1; read-out: KDR Data (IC50)
observable: IC50

- CC(C)(C)c1cc(NC(=O)Nc2cccc(Cl)c2Cl)n(-c2cccc(Cn3c(=O)[nH]n(-c4ccccc4)c3=O)c2)n1: 1700 nM
- CC(C)(C)c1cc(NC(=O)Nc2cccc(Cl)c2Cl)n(-c2cc(CO)c3ccccc3c2)n1: 62 nM
- CC(C)(C)c1cc(NC(=O)Nc2cccc(Cl)c2Cl)n(-c2cccc(C(C)(C)O)c2)n1: 460 nM
- CC(C)(C)c1cc(NC(=O)NC2CCCCC2)n(-c2ccc3c(c2)CCC(=O)N3)n1: 10100 nM
- CC(C)(C)c1cc(NC(=O)Nc2ccsc2)n(-c2ccc3c(c2)CCC(=O)N3)n1: 12900 nM
- CC(C)(C)c1cc(NC(=O)Nc2cccc(Cl)c2Cl)n(-c2ccc3c(c2)C(N)=NCC3)n1: 500 nM
- CN(C)CCc1cccc(-n2nc(C(C)(C)C)cc2NC(=O)Nc2cccc(Cl)c2Cl)c1: 470 nM
- CC(C)(C)c1cc(NC(=O)Nc2cc(F)cc(F)c2F)n(-c2ccc3c(c2)CCN3S(C)(=O)=O)n1: 38 nM
- CC1(O)CCN(C(=O)Cc2ccc(-n3nc(C(C)(C)C)cc3NC(=O)Nc3cccc(Cl)c3Cl)cc2)CC1: 470 nM
- CC(C)(C)c1cc(NC(=O)Nc2cccc(Cl)c2Cl)n(-c2ccc3c(c2)CCNCC3)n1: 210 nM
- CC(C)(C)c1cc(NC(=O)Nc2cccc(F)c2F)n(-c2cccc(CO)c2)n1: 950 nM
- CC(C(=O)O)c1ccc(-n2nc(C(C)(C)C)cc2NC(=O)Nc2cccc(Cl)c2Cl)cc1 (stereo not drawn): 230 nM
- CC(C)(C)c1cc(NC(=O)Nc2cccc(Cl)c2Cl)n(-c2ccc3c(c2)CN[C@H](C(N)=O)C3)n1: 180 nM
- CC(C)(C)c1cc(NC(=O)Nc2cccc(Cl)c2Cl)n(-c2cccc(CCN)c2)n1: 240 nM
- CC(C)(C)c1cc(NC(=O)Nc2cccc(Cl)c2Cl)n(-c2ccc3c(c2)CCN3S(=O)(=O)C(F)(F)F)n1: 130 nM

====

Measured IC50 accompanies every entry in the list below.
- test-system: phosphorylated p-38-alpha kinase (Homo sapiens, UniProt Q16539)
- Sequence (Q16539 1-360 isoform Q16539-2): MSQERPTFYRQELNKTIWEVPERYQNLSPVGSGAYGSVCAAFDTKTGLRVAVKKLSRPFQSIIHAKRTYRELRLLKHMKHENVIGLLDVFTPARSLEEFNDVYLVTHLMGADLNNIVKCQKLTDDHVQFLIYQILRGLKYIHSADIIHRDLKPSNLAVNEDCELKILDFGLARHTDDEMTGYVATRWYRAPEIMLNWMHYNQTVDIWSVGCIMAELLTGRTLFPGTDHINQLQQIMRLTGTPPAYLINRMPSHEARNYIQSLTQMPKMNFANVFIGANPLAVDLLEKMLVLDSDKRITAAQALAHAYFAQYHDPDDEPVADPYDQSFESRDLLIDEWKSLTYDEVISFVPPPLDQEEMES
- protocol-details: P-38 alpha kinase assay P1 (coupled spectrophotometric, 2 h pre-incubation)
- Format: biochemical
- experimental-setup: method P1 (2 h pre-incubation); read-out: P-38 Data
observable: IC50

* CC(C)(C)c1cc(NC(=O)Nc2cccc(Cl)c2Cl)n(-c2ccc3c(c2)CCN(S(C)(=O)=O)CC3)n1 | 11 nM
* O=C(Cc1cccc(-n2nc(-c3ccc(F)cc3)cc2NC(=O)Nc2cccc(Cl)c2Cl)c1)NCCO | 82 nM
* CC(C)(C)c1cc(NC(=O)Nc2cccc(Cl)c2Cl)n(-c2ccc(CC(=O)O)cc2)n1 | 7 nM
* CC(C)(C)c1cc(NC(=O)Nc2cccc(Oc3cccnc3)c2)n(-c2ccc3c(c2)CCNC3)n1 | 730 nM
* O=C(O)Cc1cccc(-n2nc(-c3nccs3)cc2NC(=O)Nc2cccc(Cl)c2Cl)c1 | 70 nM
* CNC(=O)c1cc(Oc2ccc(NC(=O)Nc3cc(C(C)(C)C)nn3-c3ccc4nc(N(C)C)ccc4c3)cc2)ccn1 | 160 nM
* CNC(=O)C1Cc2cc(-n3nc(C(C)(C)C)cc3NC(=O)Nc3cccc(Oc4cccnc4)c3)ccc2CN1 (stereo not drawn) | 78 nM
* NC(=O)Cc1ccc(-n2nc(-c3cccc(F)c3)cc2NC(=O)Nc2cccc(Cl)c2Cl)cc1 | 73 nM
* CC(C)(C)c1cc(NC(=O)Nc2cccc(Oc3cccnc3)c2)n(-c2ccc3c(c2)CCN3)n1 | 60 nM
* O=C(O)Cc1cccc(-n2nc(-c3cccs3)cc2NC(=O)Nc2cccc3ccccc23)c1 | 13 nM
* CC(C)(C)c1cc(NC(=O)Nc2cccc(Cl)c2Cl)n(-c2cccc(C(N)=O)c2)n1 | 45 nM
* CC(C)(C)c1cc(NC(=O)Nc2cccc(Cl)c2Cl)n(-c2ccc3c(c2)CCNCC3)n1 | 61 nM
* CC(C)(C)c1cc(NC(=O)Nc2cccc(Cl)c2Cl)n(-c2ccc3c(c2)CCN3S(=O)(=O)C(F)(F)F)n1 | 150 nM
* NC(=O)Cc1cccc(-n2nc(-c3ccccc3F)cc2NC(=O)Nc2ccc(F)c(F)c2F)c1 | 98 nM
* O=C(O)Cc1ccc(-n2nc(-c3ccccc3F)cc2NC(=O)Nc2ccc(F)c(F)c2F)cc1 | 91 nM
* CC(C(N)=O)c1cccc(-n2nc(C(C)(C)C)cc2NC(=O)Nc2cccc(Cl)c2Cl)c1 (stereo not drawn) | 11 nM
* CC(C)(C)c1cc(NC(=O)Nc2cccc(Cl)c2Cl)n(-c2cccc(-c3cn[nH]c3)c2)n1 | 29 nM
* NC(=O)Cc1cccc(-n2nc(-c3ccccc3F)cc2NC(=O)N[C@H]2CCc3ccccc32)c1 | 37 nM
* COc1ccc(-n2nc(C(C)(C)C)cc2NC(=O)Nc2cccc(Cl)c2)cc1 | 470 nM
* CC(C)(C)c1cc(NC(=O)Nc2cccc(Cl)c2Cl)n(-c2ccc3c(c2)CN(S(C)(=O)=O)CC3)n1 | 13 nM
* NC(=O)Cc1cccc(-n2nc(-c3ccccc3F)cc2NC(=O)Nc2cccc3ccccc23)c1 | 21 nM
* CC(C)(C)c1cc(NC(=O)Nc2cccc(Cl)c2Cl)n(-c2cccc(CC(=O)N3CCC[C@@H]3C(=O)O)c2)n1 | 46 nM
* CN(C)[C@H]1CCN(C(=O)Cc2cccc(-n3nc(C4CCCC4)cc3NC(=O)Nc3cccc(Cl)c3Cl)c2)C1 | 38 nM
* NC(=O)Cc1cccc(-c2ccc(C(F)(F)F)cc2NC(=O)Nc2ccc(-c3cccc4c3CNC4=O)cc2)c1 | 300 nM
* CC(C)(C)c1cc(NC(=O)Nc2cccc(Cl)c2Cl)n(-c2ccc3c(c2)CCNC(=O)C3)n1 | 7 nM
* CC(C)(C)c1cc(NC(=O)Nc2ccc(Cl)cc2)n(-c2cccc(CO)c2)n1 | 38 nM
* CC(C)(C)c1cc(NC(=O)Nc2cccc(Cl)c2Cl)n(-c2ccc3c(c2)CCNC3=O)n1 | 55 nM
* CC(C)(C)c1ncc(NC(=O)Nc2cccc(Oc3cccnc3)c2)c(-c2ccccc2)n1 | 5800 nM
* CC(C)(C)c1cc(NC(=O)Nc2cc(F)ccc2F)n(-c2cccc(C#N)c2)n1 | 67 nM
* NC(=O)Cc1cccc(-n2nc(-c3cccs3)cc2NC(=O)N[C@H]2CCc3ccccc32)c1 | 17 nM
